Test system: 361931-004-R-J1-PDC multicell spheroid viability;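 further: spheroids exposed to agents for seven days before readout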
Experiment: Anticancer human tumor 361931-004-R-J1-PDC patient-derived colon adenocarcinoma cell line growth inhibition [PI3K]
Settings: second compound 10 µM; first compound 0.0316 µM; stronger effect = lower value
Source text: Combinatorial screen of targeted agents with the PI3K inhibitors inavolisib, alpelisib, duvelisib, and copanlisib in multi-cell type tumor spheroids A high-throughput screen of multi-cell type tumor spheroids was designed to identify active combinations of targeted small molecules and PI3K pathway inhibitors. […] Compounds. […] If the clinical Cmax for an agent had not been determined, the highest concentration tested was 10 microM. […]
Endpoint: viability, T/C (%)
Answers are plain numbers, in %.

CC(=O)c1c(C)c2cnc(Nc3ccc(N4CCNCC4)cn3)nc2n(C2CCCC2)c1=O + Cc1nc(NC(=O)N2CCCC2C(N)=O)sc1-c1ccnc(C(C)(C)C(F)(F)F)c1 ... 56.5

For every item below, please supply its viability, T/C.
1. CC1(C)CCC(CN2CCN(c3ccc(C(=O)NS(=O)(=O)c4ccc(NCC5CCOCC5)c([N+](=O)[O-])c4)c(Oc4cnc5[nH]ccc5c4)c3)CC2)=C(c2ccc(Cl)cc2)C1 + CC(Nc1ncnc2nc[nH]c12)c1cc2cccc(Cl)c2c(=O)n1-c1ccccc1
2. CCN1CCN(Cc2ccc(Nc3ncc(F)c(-c4cc(F)c5nc(C)n(C(C)C)c5c4)n3)nc2)CC1 + CC(Nc1ncnc2nc[nH]c12)c1cc2cccc(Cl)c2c(=O)n1-c1ccccc1
3. C=CC(=O)N1CCN(c2nc(=O)n(-c3c(C)ccnc3C(C)C)c3nc(-c4c(O)cccc4F)c(F)cc23)C(C)C1 (configuration not stated) + CC(Nc1ncnc2nc[nH]c12)c1cc2cccc(Cl)c2c(=O)n1-c1ccccc1
4. CC1(C)CCC(Nc2ncc(C(F)(F)F)c(-c3c[nH]c4c(P(C)(C)=O)c(C#N)ccc34)n2)CN1 (configuration not stated) + CC(Nc1ncnc2nc[nH]c12)c1cc2cccc(Cl)c2c(=O)n1-c1ccccc1
5. CCCS(=O)(=O)Nc1ccc(F)c(C(=O)c2c[nH]c3ncc(-c4ccc(Cl)cc4)cc23)c1F + Cc1nc(NC(=O)N2CCCC2C(N)=O)sc1-c1ccnc(C(C)(C)C(F)(F)F)c1
6. C[C@@H](NC(=O)c1ncnc(N)c1Cl)c1ncc(C(=O)Nc2cc(C(F)(F)F)c(Cl)cn2)s1 + CC(Nc1ncnc2nc[nH]c12)c1cc2cccc(Cl)c2c(=O)n1-c1ccccc1
7. C=CC(=O)N1CCN(c2nc(=O)n(-c3c(C)ccnc3C(C)C)c3nc(-c4c(O)cccc4F)c(F)cc23)C(C)C1 (configuration not stated) + Cc1nc(NC(=O)N2CCCC2C(N)=O)sc1-c1ccnc(C(C)(C)C(F)(F)F)c1
8. CC1(C)CCC(CN2CCN(c3ccc(C(=O)NS(=O)(=O)c4ccc(NCC5CCOCC5)c([N+](=O)[O-])c4)c(Oc4cnc5[nH]ccc5c4)c3)CC2)=C(c2ccc(Cl)cc2)C1 + Cc1nc(NC(=O)N2CCCC2C(N)=O)sc1-c1ccnc(C(C)(C)C(F)(F)F)c1

109
106
104
93.1
70.6
101
58.4
65.1

For every item below, please supply its viability, T/C.
1. CNC(=O)c1ccc(N2C(=S)N(c3ccc(C#N)c(C(F)(F)F)c3)C(=O)C2(C)C)cc1F + Cc1nc(NC(=O)N2CCCC2C(N)=O)sc1-c1ccnc(C(C)(C)C(F)(F)F)c1
2. Cn1nccc1Nc1nccc(-c2ccn(C(CO)c3ccc(Cl)c(F)c3)c(=O)c2)n1 (configuration not stated) + Cc1nc(NC(=O)N2CCCC2C(N)=O)sc1-c1ccnc(C(C)(C)C(F)(F)F)c1

1. 70.2
2. 80
